assay.target: EGFR (Homo sapiens, UniProt P00533)
Sequence (P00533 25-1210): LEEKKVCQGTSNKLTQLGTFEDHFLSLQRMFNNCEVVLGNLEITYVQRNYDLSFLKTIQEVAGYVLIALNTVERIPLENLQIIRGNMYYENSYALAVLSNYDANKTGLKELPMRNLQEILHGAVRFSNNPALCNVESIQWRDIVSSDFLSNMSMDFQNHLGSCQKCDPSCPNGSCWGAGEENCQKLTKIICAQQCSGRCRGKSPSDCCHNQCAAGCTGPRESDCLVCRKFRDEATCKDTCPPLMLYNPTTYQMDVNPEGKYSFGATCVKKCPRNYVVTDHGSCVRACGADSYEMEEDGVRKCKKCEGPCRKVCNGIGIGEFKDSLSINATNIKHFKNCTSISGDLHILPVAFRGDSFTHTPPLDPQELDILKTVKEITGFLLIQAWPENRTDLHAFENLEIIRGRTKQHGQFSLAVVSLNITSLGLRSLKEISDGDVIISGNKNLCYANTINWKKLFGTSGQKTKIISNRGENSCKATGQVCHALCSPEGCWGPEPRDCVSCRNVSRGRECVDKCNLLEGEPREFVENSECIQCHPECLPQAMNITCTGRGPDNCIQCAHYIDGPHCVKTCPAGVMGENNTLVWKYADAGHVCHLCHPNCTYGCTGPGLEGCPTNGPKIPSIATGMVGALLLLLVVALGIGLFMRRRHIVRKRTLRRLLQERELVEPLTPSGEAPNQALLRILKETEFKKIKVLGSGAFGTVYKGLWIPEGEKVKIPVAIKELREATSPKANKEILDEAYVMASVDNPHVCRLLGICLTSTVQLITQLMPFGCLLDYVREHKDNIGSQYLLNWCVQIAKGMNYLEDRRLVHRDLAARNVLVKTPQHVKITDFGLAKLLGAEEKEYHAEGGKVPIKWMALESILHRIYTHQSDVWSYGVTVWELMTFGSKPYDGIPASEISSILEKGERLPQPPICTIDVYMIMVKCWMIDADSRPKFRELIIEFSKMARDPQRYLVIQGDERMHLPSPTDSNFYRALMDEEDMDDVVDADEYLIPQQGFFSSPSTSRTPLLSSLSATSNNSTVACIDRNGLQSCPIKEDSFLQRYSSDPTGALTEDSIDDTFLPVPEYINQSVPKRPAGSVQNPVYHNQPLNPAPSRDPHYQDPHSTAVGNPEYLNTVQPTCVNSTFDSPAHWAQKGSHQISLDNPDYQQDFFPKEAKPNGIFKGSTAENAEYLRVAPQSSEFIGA
reported.metric: Kd (nM)
The reply should be a number in nM, with the unit left off.

Sure, the documented Kd for Nc1[nH]nc2nnc(-c3c(-c4ccccc4)nn4ccccc34)cc12 is 1200

---

assay.target: MEK1 (Homo sapiens, UniProt Q02750)
Sequence (Q02750 whole entry): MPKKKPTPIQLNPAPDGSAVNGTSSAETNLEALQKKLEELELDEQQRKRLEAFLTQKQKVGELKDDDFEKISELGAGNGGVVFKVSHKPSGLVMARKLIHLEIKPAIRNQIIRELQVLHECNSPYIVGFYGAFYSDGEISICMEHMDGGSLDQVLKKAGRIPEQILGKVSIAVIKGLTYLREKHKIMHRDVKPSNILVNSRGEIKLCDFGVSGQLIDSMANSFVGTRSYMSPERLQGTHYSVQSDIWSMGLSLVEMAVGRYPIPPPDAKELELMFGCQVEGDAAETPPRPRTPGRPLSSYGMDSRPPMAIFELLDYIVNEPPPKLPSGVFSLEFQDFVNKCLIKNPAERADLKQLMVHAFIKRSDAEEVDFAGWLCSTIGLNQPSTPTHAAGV
reported.metric: Kd
Just so you know, I need the unit written after the number.

Sure, the documented Kd for Nc1[nH]nc2nnc(-c3c(-c4ccccc4)nn4ccccc34)cc12 [FR180204] is 8.7 µM
